assay notes: self-splicing fitness, log relative to wild type (ln ratio); higher = more splicing; Tetrahymena group I intron in knt gene, E. coli kanamycin selection, DiMSum; sequences stand for … in CUCUCU…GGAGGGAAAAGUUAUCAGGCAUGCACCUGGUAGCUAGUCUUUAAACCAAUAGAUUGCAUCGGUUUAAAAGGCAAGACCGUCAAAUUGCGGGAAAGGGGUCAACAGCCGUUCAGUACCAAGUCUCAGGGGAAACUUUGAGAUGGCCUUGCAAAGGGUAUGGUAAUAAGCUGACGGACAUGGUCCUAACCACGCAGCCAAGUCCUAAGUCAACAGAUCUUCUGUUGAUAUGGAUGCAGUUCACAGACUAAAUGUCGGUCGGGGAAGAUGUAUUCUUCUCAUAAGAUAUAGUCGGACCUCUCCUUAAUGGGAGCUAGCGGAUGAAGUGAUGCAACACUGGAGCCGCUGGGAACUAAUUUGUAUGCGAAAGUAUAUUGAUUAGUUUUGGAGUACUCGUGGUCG;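 also: selection with 25 µg/mL kanamycin versus none on LB agar overnight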
test context: 37 °C
Known self-splicing fitness (ln) of a selection of sequences

polymer sequence	self-splicing fitness (ln)
GGCCAGCAAUAUUACGACAC	0.0601
AUCAAGCAAUAUUACGUGGC	-3.52
AAUGAGCAAUAUUACGUUUA	-2.21
GAGAAGCAAUAUUACGUCUC	-2.39
CUUAAGCAAUAUUACGAUAC	-2.33
GGUUAGCAAUAUUACGACAA	0.974
UGGUAGCAAUAUUACGGACU	0.844
CGACAGCAAUAUUACGAGGG	-2.99
GUGAAGCAAUAUUACGAAAA	-0.831
GCGCAGCAAUAUUACGAAGA	-0.808
GAGAAGCAAUAUUACGAUCU	-0.515
CAACAGCAAUAUUACGUUAG	-1.52
CCACAGCAAUAUUACGGAGC	-2.99
AAUAAGCAAUAUUACGUUGA	-2.62
CUCUAGCAAUAUUACGCUAU	-2.79
UGGAAGCAAUAUUACGCUCG	-0.272
CUUCAGCAAUAUUACGAUAU	-1.73
GAUGAGCAAUAUUACGCUUU	-3.79
UCAAAGCAAUAUUACGUUAC	-2.01
GCAGAGCAAUAUUACGUGGG	-3.03
CCGUAGCAAUAUUACGACAA	-3.19
CCUGAGCAAUAUUACGCGCA	-1.11
UAGCAGCAAUAUUACGGCCU	0.118
CCCAAGCAAUAUUACGGGGG	-3
CGCUAGCAAUAUUACGGGUC	-2.9
UAUUAGCAAUAUUACGAAUU	-0.596
CGAUAGCAAUAUUACGUAGC	-2.68
ACCCAGCAAUAUUACGUUUG	-2.44
UAUGAGCAAUAUUACGUUCU	-2.67
GAGGAGCAAUAUUACGGCCC	-0.616
GAACAGCAAUAUUACGUAAG	-0.059
UACAAGCAAUAUUACGCUCA	-0.0026
ACGUAGCAAUAUUACGUUCG	-0.757
CCGAAGCAAUAUUACGCGGA	-1.78
CUGAAGCAAUAUUACGUCUA	-0.487
CGCAAGCAAUAUUACGAGAC	-1.81
AUGUAGCAAUAUUACGUUUA	-1.86
CAAAAGCAAUAUUACGUGCA	-1.96
GCGGAGCAAUAUUACGCUUU	-3.21
GCGCAGCAAUAUUACGCAUU	-0.154
UGACAGCAAUAUUACGAGGU	-2.65
AGUAAGCAAUAUUACGGUGU	-2.44
AUUGAGCAAUAUUACGAACU	-0.643
CCCAAGCAAUAUUACGAAUA	-2.68
CAAAAGCAAUAUUACGUCCC	-2.26
UCACAGCAAUAUUACGAGCU	-2.37
GACCAGCAAUAUUACGUUAC	-0.38
CAGCAGCAAUAUUACGAGUC	-2.24
UAUCAGCAAUAUUACGCUGU	-2.16
CAGAAGCAAUAUUACGCCCA	-0.986
GGUUAGCAAUAUUACGGCGG	-1.68
UCGAAGCAAUAUUACGAUAU	-1.52
CUCAAGCAAUAUUACGCUAA	-2.96
AUGGAGCAAUAUUACGAACG	-2.35
AAAUAGCAAUAUUACGACAG	-1.34
CUAGAGCAAUAUUACGAGGU	-3.24
CCGAAGCAAUAUUACGAAAU	-1.9
CUCGAGCAAUAUUACGGAGG	-1.46
